- assayedTarget: gastrin receptor (Rattus norvegicus)
- Construct: The stomach was excised and flushed with ca. 1 ml of unbuffered physiological saline solution; from tissue; host or cells: isolated whole stomach of immature rats (ca. 21 days old)
- Sequence (P30553 1-452): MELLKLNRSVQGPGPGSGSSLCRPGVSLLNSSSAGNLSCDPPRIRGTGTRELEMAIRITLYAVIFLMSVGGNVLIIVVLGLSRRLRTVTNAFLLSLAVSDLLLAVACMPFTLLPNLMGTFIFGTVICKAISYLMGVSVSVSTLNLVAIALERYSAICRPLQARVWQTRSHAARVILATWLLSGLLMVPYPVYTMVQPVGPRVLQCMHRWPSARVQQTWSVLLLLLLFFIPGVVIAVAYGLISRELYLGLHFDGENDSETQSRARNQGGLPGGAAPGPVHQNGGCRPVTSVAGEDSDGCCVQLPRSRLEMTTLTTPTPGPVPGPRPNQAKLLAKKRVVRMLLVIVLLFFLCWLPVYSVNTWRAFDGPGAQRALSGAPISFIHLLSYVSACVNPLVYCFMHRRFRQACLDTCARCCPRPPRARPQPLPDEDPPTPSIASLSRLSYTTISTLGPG
- assayOverview: gastrin antagonist activity in immature rat stomach assay (pentagastrin dose-response, acid secretion)
- measurementSetup: isolated immature rat stomach, cumulative pentagastrin dose-response curves, read-out: Gastrin pKb (converted)
measure: Kb (nM)

Recorded Kb, per entry:
INSERT INTO results (compound, outputunit, observedvalue) VALUES
  ('O=C(Nc1cccc(C(=O)N2CCC[C@H]2C(=O)O)c1)c1nc(C2CCCCC2)[nH]c1CCC12CC3CC(CC(C3)C1)C2', 'nM', 1000),
  ('O=C(O)c1cccc(NC(=O)c2nc(-c3cccc(Cl)c3Cl)[nH]c2CCC23CC4CC(CC(C4)C2)C3)c1', 'nM', 89.1);

a = CC(C)CN1CCC[C@@H]1c1nc(C(=O)Nc2cccc(C(=O)O)c2)c(CCC23CC4CC(CC(C4)C2)C3)[nH]1
b = O=C(O)c1cccc(NC(=O)c2nc(C34CCC(CC3)CC4)[nH]c2COC23CC4CC(CC(C4)C2)C3)c1
Sort a and b by Kb descending and give the first. Reply with the label of the item you choose.
a

P = Cc1cc(C)c(-c2nc(C(=O)Nc3ccc(C)c(C(=O)O)c3)c(CCC34CC5CC(CC(C5)C3)C4)[nH]2)c(C)c1
Q = Cc1ccccc1-c1nc(CCC23CC4CC(CC(C4)C2)C3)c(CCc2cccc(C(=O)O)c2)n1C
R = CCc1ccccc1-c1nc(C(=O)Nc2cccc(C(=O)O)c2)c(CCC23CC4CC(CC(C4)C2)C3)[nH]1
S = O=C(O)c1cccc(NC(=O)c2[nH]c(C3CCCCCC3)nc2CCC23CC4CC(CC(C4)C2)C3)c1
Exam item: list the entries in increasing order of Kb. Record the ranking as a list of labels in the requested order.
P, S, R, Q
(P: 3.24 nM, S: 5.37 nM, R: 105 nM, Q: 1000 nM)

a = Cc1ccc(NC(=O)c2nc(C34C=CC(CC3)CC4)[nH]c2COC23CC4CC(CC(C4)C2)C3)cc1C(=O)O
b = Cc1ccc(NC(=O)c2nc(C3CCCCC3)[nH]c2CCC23CCC(CC2)CC3)cc1C(=O)O
Quick one: lower Kb, a or b ? Reply with the label of the item you choose.
a
(a: 2.63 nM, b: 6.61 nM)

a = Cc1c(NC(=O)c2nc(C3CCCCC3)[nH]c2COC23CC4CC(CC(C4)C2)C3)cccc1C(=O)O
b = Cc1ccccc1-c1nc(C(=O)Nc2ccc(F)c(C(=O)O)c2)c(CCC23CC4CC(CC(C4)C2)C3)[nH]1
c = Cc1ccc(NC(=O)c2nc(-c3ccccc3C)[nH]c2CCC23CC4CC(CC(C4)C2)C3)cc1C(=O)O
Exam item: list the entries in increasing order of Kb. Record the ranking as a list of labels in the requested order.
c, b, a
(c: 6.31 nM, b: 87.1 nM, a: 148 nM)

1 = O=C(O)/C=C/c1cccc(NC(=O)c2nc(C3CCCCC3)[nH]c2CCC23CC4CC(CC(C4)C2)C3)c1
2 = Cc1ccc(NC(=O)c2nc(C3CCCCCCC3)[nH]c2COC23CC4CC(CC(C4)C2)C3)cc1C(=O)O
Quick one: lower Kb, 1 or 2 ? Reply with the label of the item you choose.
2
(2: 1.95 nM, 1: 70.8 nM)

I = COCC1(c2nc(C(=O)Nc3cccc(C(=O)O)c3)c(CCC34CC5CC(CC(C5)C3)C4)[nH]2)CCCCC1
II = O=C(O)c1cccc(NC(=O)c2nc(C3CC4CCC3C4)[nH]c2CCC23CC4CC(CC(C4)C2)C3)c1 (racemic) [Example 115]
Quick one: lower Kb, I or II ? Reply with the label of the item you choose.
II

I = Cn1c(C2CCCCC2)nc(C(=O)Nc2cccc(CC(=O)O)c2)c1CCC12CC3CC(CC(C3)C1)C2
II = CCCC(CCC)c1nc(C(=O)Nc2cccc(C(=O)O)c2)c(CCC23CC4CC(CC(C4)C2)C3)[nH]1
III = O=C(O)CCc1ccc(NC(=O)c2nc(C3CCCCC3)[nH]c2CCC23CC4CC(CC(C4)C2)C3)cc1
IV = O=C(O)Cc1cccc(NC(=O)c2nc(C3CCCCC3)[nH]c2COC23CC4CC(CC(C4)C2)C3)c1
V = CC(=O)NC(Cc1cccc(NC(=O)c2nc(C3CCCCC3)[nH]c2CCC23CC4CC(CC(C4)C2)C3)c1)C(=O)O (racemic)
Exam item: list the entries in increasing order of Kb. Record the ranking as a list of labels in the requested order.
II, IV, V, I, III
(II: 2.29 nM, IV: 69.2 nM, V: 148 nM, I: 363 nM, III: 1150 nM)

I = O=C(O)c1cccc(NC(=O)c2nc(CC34CC5CC(CC(C5)C3)C4)[nH]c2CCc2ccccc2)c1
II = Cc1nc(C(=O)Nc2cccc(C(=O)O)c2)c(CCC23CC4CC(CC(C4)C2)C3)[nH]1
III = CC1(C)C2CC[C@@]1(C)C(c1nc(C(=O)Nc3cccc(C(=O)O)c3)c(CCC34CC5CC(CC(C5)C3)C4)[nH]1)C2 (mixture of isomers)
IV = O=C(O)c1cccc(NC(=O)c2nc(C3C4C=CC3C=C4)[nH]c2COC23CC4CC(CC(C4)C2)C3)c1 (stereo not shown)
Exam item: list the entries in increasing order of Kb. Record the ranking as a list of labels in the requested order.
IV, III, I, II

1 = CC(=O)NC(C(=O)O)c1cccc(NC(=O)c2nc(C3CCCCC3)[nH]c2CCC23CC4CC(CC(C4)C2)C3)c1 (racemic)
2 = O=C(O)c1cccc(NC(=O)c2nc(C3CCCCC3)[nH]c2CCC2CCCCC2)c1
Sort 1 and 2 by Kb descending and give the first. Reply with the label of the item you choose.
1
(1: 871 nM, 2: 64.6 nM)
